Just for reference, ChEMBL document CHEMBL5030523 is where these values come from.

system.name: Telomerase reverse transcriptase (Homo sapiens)
experiment: Inhibition of telomerase in human HT-29 cells by TRAP assay
Type: cell-based
recorded.metric: IC50 (µM)

Some solved cases for reference:
May I ask what IC50 has been recorded for Cc1cn([C@H]2C[C@@H](n3cc(CNC(=O)Nc4cccc(S(N)(=O)=O)c4)nn3)[C@@H](CO)O2)c(=O)[nH]c1=O ? 2.2

May I ask what IC50 has been recorded for Cc1cn([C@H]2C[C@@H](n3cc(COc4ccc(S(N)(=O)=O)cc4)nn3)[C@@H](CO)O2)c(=O)[nH]c1=O ? 18.4

P: Cc1cn([C@H]2C[C@@H](n3cc(COC(=O)c4ccc(S(N)(=O)=O)cc4)nn3)[C@@H](CO)O2)c(=O)[nH]c1=O
Q: Cc1cn([C@H]2C[C@@H](n3cc(COc4ccc5c(c4)C=CS(=O)(=O)O5)nn3)[C@@H](CO)O2)c(=O)[nH]c1=O
R: Cc1cn([C@H]2C[C@@H](n3cc(COc4ccc5oc(=O)ccc5c4)nn3)[C@@H](CO)O2)c(=O)[nH]c1=O
Put these in order: smallest IC50 first, largest last. Dear reader, please state the labels in the requested order. P, R, Q

====

The molecules below have reported Ki for Carbonic anhydrase 7 (Homo sapiens, UniProt P43166).
recorded.metric: Ki (nM)

I: Cc1cn([C@H]2C[C@@H](n3cc(COc4ccc5c(c4)C=CS(=O)(=O)O5)nn3)[C@@H](CO)O2)c(=O)[nH]c1=O
II: Cc1cn([C@H]2C[C@@H](n3cc(COC(=O)c4ccc(S(N)(=O)=O)cc4)nn3)[C@@H](CO)O2)c(=O)[nH]c1=O
Between I and II , whose recorded Ki is greater? Return value: the label identifying the chosen record. II

====

system.name: Telomerase reverse transcriptase (Homo sapiens, UniProt O14746)
Sequence (O14746 whole entry): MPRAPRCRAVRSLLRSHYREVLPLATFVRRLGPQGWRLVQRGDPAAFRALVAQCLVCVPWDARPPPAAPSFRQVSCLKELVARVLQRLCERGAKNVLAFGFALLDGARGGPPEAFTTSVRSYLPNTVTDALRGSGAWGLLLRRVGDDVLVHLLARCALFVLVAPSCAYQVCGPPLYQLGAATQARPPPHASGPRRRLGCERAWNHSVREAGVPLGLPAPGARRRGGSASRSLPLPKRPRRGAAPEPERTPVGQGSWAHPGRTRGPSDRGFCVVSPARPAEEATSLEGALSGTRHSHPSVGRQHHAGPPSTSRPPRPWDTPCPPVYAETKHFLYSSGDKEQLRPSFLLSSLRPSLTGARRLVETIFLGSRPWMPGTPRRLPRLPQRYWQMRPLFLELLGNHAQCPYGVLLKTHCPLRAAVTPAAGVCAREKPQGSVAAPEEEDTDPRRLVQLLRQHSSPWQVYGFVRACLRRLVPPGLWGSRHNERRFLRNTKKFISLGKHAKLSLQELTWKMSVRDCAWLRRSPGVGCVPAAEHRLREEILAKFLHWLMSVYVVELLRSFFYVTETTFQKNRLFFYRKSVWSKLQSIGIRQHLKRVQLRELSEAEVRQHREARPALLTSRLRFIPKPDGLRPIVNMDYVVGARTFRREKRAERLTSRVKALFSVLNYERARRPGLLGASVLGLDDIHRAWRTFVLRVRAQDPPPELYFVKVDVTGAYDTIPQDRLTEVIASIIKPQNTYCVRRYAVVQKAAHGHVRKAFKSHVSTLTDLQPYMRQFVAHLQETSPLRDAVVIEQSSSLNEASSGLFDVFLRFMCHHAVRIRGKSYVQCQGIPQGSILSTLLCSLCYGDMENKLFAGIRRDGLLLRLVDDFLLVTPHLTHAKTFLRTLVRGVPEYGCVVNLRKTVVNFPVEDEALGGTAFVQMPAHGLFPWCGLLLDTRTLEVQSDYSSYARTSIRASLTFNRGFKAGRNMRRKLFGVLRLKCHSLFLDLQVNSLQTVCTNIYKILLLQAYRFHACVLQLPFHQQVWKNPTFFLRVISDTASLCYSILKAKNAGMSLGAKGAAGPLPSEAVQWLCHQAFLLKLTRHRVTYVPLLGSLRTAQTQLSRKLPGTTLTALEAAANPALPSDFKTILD
experiment: Inhibition of telomerase in human HCT-116 cells by TRAP assay
Assay type: cell-based
pIC50: −log10 of the molar value.
recorded.metric: pIC50

Some solved cases for reference:
May I ask what pIC50 has been recorded for Cc1cn([C@H]2C[C@@H](n3cc(COc4ccc5c(c4)C=CS(=O)(=O)O5)nn3)[C@@H](CO)O2)c(=O)[nH]c1=O ? 4.32

May I ask what pIC50 has been recorded for Cc1cn([C@H]2C[C@@H](n3cc(COc4ccc(S(N)(=O)=O)cc4)nn3)[C@@H](CO)O2)c(=O)[nH]c1=O ? 5.32

May I ask what pIC50 has been recorded for Cc1cn([C@H]2C[C@@H](n3cc(COC(=O)c4ccc(S(N)(=O)=O)cc4)nn3)[C@@H](CO)O2)c(=O)[nH]c1=O ? 5.25

I: Cc1cn([C@H]2C[C@@H](n3cc(CNC(=O)Nc4cccc(S(N)(=O)=O)c4)nn3)[C@@H](CO)O2)c(=O)[nH]c1=O
II: Cc1cn([C@H]2C[C@@H](n3cc(COc4ccc5oc(=O)ccc5c4)nn3)[C@@H](CO)O2)c(=O)[nH]c1=O
Between I and II , whose recorded pIC50 is greater? Return value: the label identifying the chosen record. I

====

pKi: −log10 of the molar value.
The molecules below have reported pKi for Carbonic anhydrase 2 (Homo sapiens, UniProt P00918).

Provide the documented pKi with Carbonic anhydrase 2 (Homo sapiens, UniProt P00918) as the system for Cc1cn([C@H]2C[C@@H](n3cc(COc4ccc5c(c4)C=CS(=O)(=O)O5)nn3)[C@@H](CO)O2)c(=O)[nH]c1=O < 5.00

***
Provide the documented pKi with Carbonic anhydrase 2 (Homo sapiens, UniProt P00918) as the system for Cc1cn([C@H]2C[C@@H](n3cc(COc4ccc5oc(=O)ccc5c4)nn3)[C@@H](CO)O2)c(=O)[nH]c1=O < 5.00

====

system.name: Carbonic anhydrase 9 (Homo sapiens, UniProt Q16790)
recorded.metric: pKi
// pKi is dimensionless: -log10 of concentration (M)

Provide the documented pKi with Carbonic anhydrase 9 (Homo sapiens, UniProt Q16790) as the system for Cc1cn([C@H]2C[C@@H](n3cc(COc4ccc5oc(=O)ccc5c4)nn3)[C@@H](CO)O2)c(=O)[nH]c1=O 4.18

====

system.name: Telomerase reverse transcriptase (Homo sapiens)
experiment: Inhibition of telomerase in human COLO 205 cells by TRAP assay
Format: cell-based
recorded.metric: IC90 (µM)

Some solved cases for reference:
May I ask what IC90 has been recorded for Cc1cn([C@H]2C[C@@H](n3cc(COc4ccc(S(N)(=O)=O)cc4)nn3)[C@@H](CO)O2)c(=O)[nH]c1=O ? 50

May I ask what IC90 has been recorded for Cc1cn([C@H]2C[C@@H](n3cc(COC(=O)c4ccc(S(N)(=O)=O)cc4)nn3)[C@@H](CO)O2)c(=O)[nH]c1=O ? 29.1

May I ask what IC90 has been recorded for Cc1cn([C@H]2C[C@@H](n3cc(COc4ccc5c(c4)C=CS(=O)(=O)O5)nn3)[C@@H](CO)O2)c(=O)[nH]c1=O ? 71.5

P: Cc1cn([C@H]2C[C@@H](n3cc(COc4ccc5oc(=O)ccc5c4)nn3)[C@@H](CO)O2)c(=O)[nH]c1=O
Q: Cc1cn([C@H]2C[C@@H](n3cc(CNC(=O)Nc4cccc(S(N)(=O)=O)c4)nn3)[C@@H](CO)O2)c(=O)[nH]c1=O
Between P and Q , whose recorded IC90 is greater? Return value: the label identifying the chosen record. P
(P: 67.5 µM, Q: 9.1 µM)

====

system.name: Telomerase reverse transcriptase (Homo sapiens, UniProt O14746)
experiment: Inhibition of telomerase in human HCT-116 cells by TRAP assay
Type: cell-based
recorded.metric: IC90 (µM)

Some solved cases for reference:
May I ask what IC90 has been recorded for Cc1cn([C@H]2C[C@@H](n3cc(COc4ccc5oc(=O)ccc5c4)nn3)[C@@H](CO)O2)c(=O)[nH]c1=O ? 32.1

May I ask what IC90 has been recorded for Cc1cn([C@H]2C[C@@H](n3cc(COc4ccc(S(N)(=O)=O)cc4)nn3)[C@@H](CO)O2)c(=O)[nH]c1=O ? 37.2

I: Cc1cn([C@H]2C[C@@H](n3cc(COC(=O)c4ccc(S(N)(=O)=O)cc4)nn3)[C@@H](CO)O2)c(=O)[nH]c1=O
II: Cc1cn([C@H]2C[C@@H](n3cc(CNC(=O)Nc4cccc(S(N)(=O)=O)c4)nn3)[C@@H](CO)O2)c(=O)[nH]c1=O
Lower IC90: I or II ? Return value: the label identifying the chosen record. II
(II: 10.2 µM, I: 31 µM)

====

system.name: Telomerase reverse transcriptase (Homo sapiens)
experiment: Inhibition of telomerase in human SW-620 cells by TRAP assay
Type: cell-based
recorded.metric: IC50 (µM)

Provide the documented IC50 with Telomerase reverse transcriptase (Homo sapiens) as the system for Cc1cn([C@H]2C[C@@H](n3cc(COc4ccc5c(c4)C=CS(=O)(=O)O5)nn3)[C@@H](CO)O2)c(=O)[nH]c1=O 75.4

Provide the documented IC50 with Telomerase reverse transcriptase (Homo sapiens) as the system for Cc1cn([C@H]2C[C@@H](n3cc(COC(=O)c4ccc(S(N)(=O)=O)cc4)nn3)[C@@H](CO)O2)c(=O)[nH]c1=O 8.6

Provide the documented IC50 with Telomerase reverse transcriptase (Homo sapiens) as the system for Cc1cn([C@H]2C[C@@H](n3cc(COc4ccc(S(N)(=O)=O)cc4)nn3)[C@@H](CO)O2)c(=O)[nH]c1=O 18.2

I: Cc1cn([C@H]2C[C@@H](n3cc(CNC(=O)Nc4cccc(S(N)(=O)=O)c4)nn3)[C@@H](CO)O2)c(=O)[nH]c1=O
II: Cc1cn([C@H]2C[C@@H](n3cc(COc4ccc5oc(=O)ccc5c4)nn3)[C@@H](CO)O2)c(=O)[nH]c1=O
Lower IC50: I or II ? Return value: the label identifying the chosen record. I

====

The compounds below have reported pKi for Carbonic anhydrase 5B, mitochondrial (Homo sapiens, UniProt Q9Y2D0).
pKi: −log10 of the molar value.
recorded.metric: pKi

A: Cc1cn([C@H]2C[C@@H](n3cc(COc4ccc5c(c4)C=CS(=O)(=O)O5)nn3)[C@@H](CO)O2)c(=O)[nH]c1=O
B: Cc1cn([C@H]2C[C@@H](n3cc(COc4ccc(S(N)(=O)=O)cc4)nn3)[C@@H](CO)O2)c(=O)[nH]c1=O
Lower pKi: A or B ? Return value: the label identifying the chosen record. B
(B: 6.85, A: 7.25)
